Reference source for all entries: patent US20220259289A1

Molecular target: human serum albumin (human) (UniProt P02768)
Sequence (P02768 25-609 limits assumed): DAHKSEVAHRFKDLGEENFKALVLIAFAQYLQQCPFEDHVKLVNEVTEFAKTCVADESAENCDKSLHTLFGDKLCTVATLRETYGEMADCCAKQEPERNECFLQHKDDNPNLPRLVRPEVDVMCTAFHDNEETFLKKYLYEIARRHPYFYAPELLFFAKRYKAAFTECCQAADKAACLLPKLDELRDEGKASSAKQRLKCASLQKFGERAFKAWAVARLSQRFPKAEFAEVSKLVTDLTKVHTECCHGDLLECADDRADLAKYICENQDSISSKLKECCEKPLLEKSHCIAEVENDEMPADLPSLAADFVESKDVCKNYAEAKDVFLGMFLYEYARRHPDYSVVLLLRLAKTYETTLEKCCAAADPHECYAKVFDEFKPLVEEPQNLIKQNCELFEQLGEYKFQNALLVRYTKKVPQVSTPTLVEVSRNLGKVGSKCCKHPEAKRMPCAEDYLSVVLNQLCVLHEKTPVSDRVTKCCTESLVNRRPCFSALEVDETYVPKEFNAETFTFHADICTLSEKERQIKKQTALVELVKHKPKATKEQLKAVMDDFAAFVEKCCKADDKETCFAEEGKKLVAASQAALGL
Test: ELISA, negative control HSA
assayEndpoint: ELISA HSA (RLU)
Field: numeric (RLU). Do not append units.

{"binder": "ISOP193HR9P1E6 (designed binder, not shown: small tags and cut ends) LPAPKNLVVSRVTEDSARLSWTAPDAAFDSFEIYYAEFGYYGEAIVLTVPGSERSYDLTGLKPGTEYLVTIYGVKGCAASDPLSAIFTT", "assayEndpoint": "ELISA HSA (RLU)", "endpointResult": 3040}
{"binder": "ISOP193HR9P1A7 (designed binder, not shown: small tags and cut ends) LPAPKNLVVSRVTEDSARLSWTAPDAAFDSFDIYYYELRLGGEAIVLTVPGSERSYDLTGLKPGTEYLVTIYGVKVCNASTPLSAIFTT", "assayEndpoint": "ELISA HSA (RLU)", "endpointResult": 12600}
{"binder": "ISOP193FR9P1E10 (designed binder, not shown: small tags and cut ends) LPAPKNLVVSRVTEDSARLSWTTPDAAFDSFHIHYLEGEWGGEAIVLTVPGSERSYDLTGLKPGTEYLVTIYGVKGCDWSDPLSAIFTT", "assayEndpoint": "ELISA HSA (RLU)", "endpointResult": 31000}
{"binder": "ISOP193FR9P1D5 (designed binder, not shown: small tags and cut ends) LPAPKNLVVSRVTEDSARLSWTAPDAAFDSFYIRYIEDVDFGEAIVLTVPGSERSYDLTGLKPGTEYLVTIYGVKGCDWSDPLSAIFTT", "assayEndpoint": "ELISA HSA (RLU)", "endpointResult": 10800}
{"binder": "ISOP193HR9P1B7 (designed binder, not shown: small tags and cut ends) LPAPKNLVVSRVTEDSARLSWTAPDAAFDSFEIYYFELRLGGEAIVLTVPGSERSYDLTGLKPGTEYLVSIYGVKGCGYSDPLSAIFTT", "assayEndpoint": "ELISA HSA (RLU)", "endpointResult": 2240}

Q) I would be grateful if you could share the reported ELISA HSA (RLU) for ISOP193FR9P1F8 (designed binder, not shown: small tags and cut ends) LPAPKNLVVSRVTEDSARLSWTAPDAAFDSFDINYFENELGGEAIVLTVPGSERSYDLTGLKPGTEYLVTIYGVKGCDWSDPLSAIFTT .
A) 5040

Q) Which ELISA HSA (RLU) is listed for ISOP193FR9P1A5 (designed binder, not shown: small tags and cut ends) LPAPKNLVVSRVTEDSARLSWTAPDAAFDSFEIYYIEPIAPGEAIVLTVPGSERSYDLTGLKPGTEYWVTIYGVKGCDWSDPLSAIFTT ?
A) 26200

Q) Please give the measured ELISA HSA (RLU) for this binder: ISOP193FR9P1C5 (designed binder, not shown: small tags and cut ends) LPAPKNLVVSRVTEDSARLSWTAPDAAFDSFHIYYLEQYSRGEAIVLTVPGSERSYDLTGLKPGTEYLVTIYGVKGCDWSDPLSAIFTT
A) 19200
